- Tested on: Swiss Webster mice
- experiment summary: Warm-water tail immersion assay, antagonism of morphine-induced antinociception
- setup conditions: mice, s.c., given 5 min before morphine
readout name: AD50 (95% CL) for counteracting morphine-induced antinociception

- compound: "O=C(N[C@@H]1CC[C@@]2(O)[C@H]3Cc4ccc(O)c5c4[C@@]2(CCN3CC2CC2)[C@H]1O5)c1ccns1"
  target system: "Swiss Webster mice"
  value measured: "4.77 (3.59–6.34) mg/kg"
- compound: "O=C(N[C@@H]1CC[C@@]2(O)[C@H]3Cc4ccc(O)c5c4[C@@]2(CCN3CC2CC2)[C@H]1O5)c1nccs1"
  target system: "Swiss Webster mice"
  value measured: "0.23 (0.04–1.37) mg/kg"

Task: Quick one: AD50 (95% CL) for counteracting morphine-induced antinociception for O=C(N[C@H]1CC[C@@]2(O)[C@H]3Cc4ccc(O)c5c4[C@@]2(CCN3CC2CC2)[C@H]1O5)c1nccs1 ?
Result: 0.043 (0.007–0.25) mg/kg

Task: Quick one: AD50 (95% CL) for counteracting morphine-induced antinociception for O=C(Cc1ccns1)N[C@@H]1CC[C@@]2(O)[C@H]3Cc4ccc(O)c5c4[C@@]2(CCN3CC2CC2)[C@H]1O5 ?
Result: 13.12 (2.34–73.39) mg/kg
